# Test system: RKO
# Assay Explanation: Antiproliferative activity against RKO cells
# Assay type: functional, cell-based
# Setup Conditions: Homo sapiens
Test Readout: IC50 (µM)
Answers are plain numbers, in µM.

Reported IC50 for RKO, given CCSC(=S)SCC(=O)c1ccc(OC)cc1 ?
2

###

# Subject Of Test: Histone deacetylase 1 (Homo sapiens, UniProt Q13547)
# Sequence (Q13547 whole entry): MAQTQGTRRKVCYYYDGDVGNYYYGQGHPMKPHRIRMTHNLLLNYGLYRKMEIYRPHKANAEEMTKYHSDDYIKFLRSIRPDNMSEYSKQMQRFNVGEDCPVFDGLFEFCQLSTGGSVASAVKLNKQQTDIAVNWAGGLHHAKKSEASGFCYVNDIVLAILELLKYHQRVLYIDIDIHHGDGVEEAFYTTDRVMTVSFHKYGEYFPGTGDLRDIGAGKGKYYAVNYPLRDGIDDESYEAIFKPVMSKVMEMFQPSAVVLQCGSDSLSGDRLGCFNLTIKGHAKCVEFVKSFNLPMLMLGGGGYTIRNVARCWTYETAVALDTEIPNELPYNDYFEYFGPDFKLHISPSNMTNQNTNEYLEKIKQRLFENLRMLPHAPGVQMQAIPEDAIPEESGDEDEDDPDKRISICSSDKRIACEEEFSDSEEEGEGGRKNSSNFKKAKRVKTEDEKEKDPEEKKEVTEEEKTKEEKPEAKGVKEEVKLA
# Assay Explanation: Inhibition of HDAC1 in HeLa cells
Test Readout: IC50 (µM)
One number for each entry, in µM.

Find the recorded IC50 belonging to CCSC(=S)SCC(=O)c1ccc(OC)cc1 and report it.
3.98

###

For each entry below, report its pIC50 value.
# Subject Of Test: Histone deacetylase
# Assay Explanation: Inhibition of HDAC in HeLa cells
# Format: cell-based, Homo sapiens

{"Mol": "CCSC(=S)SCC(=O)c1ccc(OC)cc1", "pIC50": 6.3}
{"Mol": "CCSC(=S)SCC(=O)c1ccc(OC(F)F)cc1", "pIC50": 6.1}
{"Mol": "CCSC(=S)SCC(=O)c1ccc(C#N)cc1", "pIC50": 6.3}
{"Mol": "CCSC(=S)SCC(=O)c1cccc(OC)c1", "pIC50": 5.9}
{"Mol": "CCSC(=S)SCC(=O)c1ccc(Cl)cc1", "pIC50": 6}

Fill in pIC50 for each of the 2 compounds listed.
1. CC(C)(C)SC(=S)SCC(=O)c1ccc(Cl)c(Cl)c1
2. Cc1ccc(C(=O)CSC(=S)SCCc2ccccc2)cc1

1: 6.9; 2: 6.5

###

# Subject Of Test: Histone deacetylase (Homo sapiens) (UniProt Q13547+O15379+Q9UBN7+Q92769+Q9UQL6+Q8WUI4+Q9BY41+Q96DB2+P56524+Q9UKV0+Q969S8)
# Assay Explanation: Inhibition of HDAC in HeLa cells at 50 uM
# Format: cell-based
Test Readout: inhibition (%)
Give bare numbers, in %.

{"Molecule": "CCSCCC(=O)c1ccc(Cl)cc1", "inhibition [%]": 5}
{"Molecule": "CCSC(=S)SCC(=O)c1ccc(OC)cc1OC", "inhibition [%]": 3}
{"Molecule": "CCSC(=S)SCC(=O)c1ccccc1OC", "inhibition [%]": 6}
{"Molecule": "CCSC(=S)SCCCC(=O)c1ccc(Cl)cc1", "inhibition [%]": 5}
{"Molecule": "CCSC(=S)SCC(=O)c1cc(OC)ccc1OC", "inhibition [%]": 6}

Alright, here's another molecule for you.
Find the recorded inhibition belonging to CCSC(=S)SC(C)C(=O)c1ccccc1 (stereo unspecified) and report it.
3

###

# Tested on: HeLa
# Assay Explanation: Antiproliferative activity against HeLa cells at 25 uM by alamar blue assay
# Format: functional
# Setup Conditions: Homo sapiens
Test Readout: inhibition at 25 µM (%)
One number for each entry, in %.

Known inhibition at 25 µM results, listed for orientation:
{"Mol": "CCSC(=S)SCC(=O)CCCCCCC(=O)Nc1ccccc1", "Endpoint Unit": "%", "Observed Result": 40}
{"Mol": "CCSC(=S)SCC(=O)Nc1ccc(Cl)c(Cl)c1", "Endpoint Unit": "%", "Observed Result": 0}
{"Mol": "CCSC(=S)SCCc1ccc(OC)cc1", "Endpoint Unit": "%", "Observed Result": 0}

Fill in inhibition at 25 µM for each of the 2 compounds listed.
1. CCSC(=S)SCCCC(=O)c1ccc(Cl)cc1
2. CCSCCC(=O)c1ccc(Cl)cc1

[0, 0]

Source of measurements: ChEMBL document CHEMBL1146229
